Tested on: Escherichia coli TOP10
Assay: shrunken log2 fold change of peptide-encoding DNA abundance (4.5 h post-induction vs induction); higher = less antimicrobial activity (less host growth inhibition)
Conditions: time post-induction: 4.5 h; library: site-saturation at positions 5, 18, 19, 20
Outcome Measure: shrunken log2 fold change

> print(dat)
            chain.sequence          assayed.target            outcome.measure   result
1  RRIRQRPPRLPRPRPRPPDCPRP  Escherichia coli TOP10  shrunken log2 fold change  -0.0194
2  RRIRNRPPRLPRPRPRPSRHPRP  Escherichia coli TOP10  shrunken log2 fold change   -0.061
3  RRIRQRPPRLPRPRPRPNIRPRP  Escherichia coli TOP10  shrunken log2 fold change   0.0516
4  RRIRVRPPRLPRPRPRPFPGPRP  Escherichia coli TOP10  shrunken log2 fold change     0.03

Can you look up the measured shrunken log2 fold change of RRIRPRPPRLPRPRPRPLHQPRP for me?
-0.0461

Suppose we examine the sequence RRIRMRPPRLPRPRPRPYRLPRP ; what shrunken log2 fold change value has been reported?
-0.0977

----------
Test system: Escherichia coli TOP10
Assay: shrunken log2 fold change of peptide-encoding DNA abundance (4.5 h post-induction vs induction); higher = less antimicrobial activity (less host growth inhibition)
Settings: time post-induction: 4.5 h; library: site-saturation at positions 5, 18, 19, 20
Outcome Measure: shrunken log2 fold change
Output spec: single numeric token, no unit.

As a guide, the following entries are already answered.
> print(dat)
            chain.sequence    result
1  RRIRGRPPRLPRPRPRPNSEPRP     0.295
2  RRIRPRPPRLPRPRPRPAGKPRP   -0.0291
3  RRIRQRPPRLPRPRPRPIYGPRP  -0.00674
4  RRIRWRPPRLPRPRPRPYQYPRP   -0.0756
5  RRIRVRPPRLPRPRPRPMFDPRP    -0.338

Give the measured shrunken log2 fold change of RRIRERPPRLPRPRPRPMYDPRP .
-0.266

What value of measured shrunken log2 fold change is listed for RRIRKRPPRLPRPRPRPAHCPRP ?
-0.0571

// shrunken log2 fold change lookup, key: RRIRWRPPRLPRPRPRPRHEPRP
-0.0681

If you can, please state the reported shrunken log2 fold change value of RRIRVRPPRLPRPRPRPHYWPRP .
-0.336

# lookup: shrunken log2 fold change of RRIRDRPPRLPRPRPRPFNKPRP
-1.45

# query: shrunken log2 fold change of entry RRIRCRPPRLPRPRPRPQCEPRP
-0.128

Tell me the measured shrunken log2 fold change of RRIRTRPPRLPRPRPRPSHSPRP , please.
-0.399

----------
Test system: Escherichia coli TOP10
Experiment: shrunken log2 fold change of peptide-encoding DNA abundance (4.5 h post-induction vs induction); higher = less antimicrobial activity (less host growth inhibition)
Conditions: time post-induction: 4.5 h; library: site-saturation at positions 5, 18, 19, 20
Outcome Measure: shrunken log2 fold change

Below, 2 sequences whose answers are already recorded.
> print(dat)
            chain.sequence   result
1  RRIRERPPRLPRPRPRPIHWPRP  -0.0429
2  RRIRTRPPRLPRPRPRPWAVPRP  -0.0894

Consider the sequence RRIRRRPPRLPRPRPRPTPWPRP and give its measured shrunken log2 fold change.
0.841

----------
Listing of recorded shrunken log2 fold change by entry.
Tested on: Escherichia coli TOP10
Assay: shrunken log2 fold change of peptide-encoding DNA abundance (4.5 h post-induction vs induction); higher = less antimicrobial activity (less host growth inhibition)
Conditions: time post-induction: 4.5 h; library: site-saturation at positions 5, 18, 19, 20

# example entries with known answers
> print(dat)
            chain.sequence            outcome.measure  result
1  RRIRARPPRLPRPRPRPVKWPRP  shrunken log2 fold change    3.06
2  RRIRIRPPRLPRPRPRPHIYPRP  shrunken log2 fold change    0.13

Now for another entry.
Which shrunken log2 fold change value belongs to RRIRWRPPRLPRPRPRPLMQPRP ?
0.217

----------
Test system: Escherichia coli TOP10
Test: shrunken log2 fold change of peptide-encoding DNA abundance (4.5 h post-induction vs induction); higher = less antimicrobial activity (less host growth inhibition)
Conditions: time post-induction: 4.5 h; library: site-saturation at positions 5, 18, 19, 20
shrunken log2 fold change reference
Provide a numeric answer; units are not to be included.

Reference set, count: 5
> print(dat)
            chain.sequence            outcome.measure  result
1  RRIRMRPPRLPRPRPRPALFPRP  shrunken log2 fold change   0.356
2  RRIRFRPPRLPRPRPRPYLFPRP  shrunken log2 fold change   0.425
3  RRIRSRPPRLPRPRPRPIKKPRP  shrunken log2 fold change   0.234
4  RRIRSRPPRLPRPRPRPLYNPRP  shrunken log2 fold change  -0.344
5  RRIRQRPPRLPRPRPRPEFIPRP  shrunken log2 fold change  -0.163

# input sequence: RRIRMRPPRLPRPRPRPNMCPRP ; wanted: its shrunken log2 fold change
0.0492

Looking for the measured shrunken log2 fold change of RRIRDRPPRLPRPRPRPTFPPRP , can you help?
0.0873

Which measured shrunken log2 fold change value corresponds to RRIRYRPPRLPRPRPRPHWEPRP ?
-0.276

Field request: shrunken log2 fold change | item: RRIRWRPPRLPRPRPRPKCGPRP
0.594

Look at this sequence and give its reported shrunken log2 fold change. RRIRRRPPRLPRPRPRPTMPPRP
0.438

----------
The following sequences are listed with their measured shrunken log2 fold change values.
Tested on: Escherichia coli TOP10
Experiment: shrunken log2 fold change of peptide-encoding DNA abundance (4.5 h post-induction vs induction); higher = less antimicrobial activity (less host growth inhibition)
Conditions: time post-induction: 4.5 h; library: site-saturation at positions 5, 18, 19, 20
A bare number is all that is needed in reply.

Worked cases, answers included:
> print(dat)
             chain.sequence   result
 1  RRIRPRPPRLPRPRPRPWIYPRP   -0.584
 2  RRIRTRPPRLPRPRPRPMAQPRP    0.074
 3  RRIRQRPPRLPRPRPRPGKEPRP  0.00212
 4  RRIRPRPPRLPRPRPRPMYMPRP  -0.0346
 5  RRIRMRPPRLPRPRPRPNARPRP    0.323
 6  RRIRNRPPRLPRPRPRPQWCPRP  -0.0662
 7  RRIRHRPPRLPRPRPRPHNSPRP   -0.692
 8  RRIRARPPRLPRPRPRPKQVPRP   0.0289
 9  RRIRQRPPRLPRPRPRPATVPRP    0.239
10  RRIRIRPPRLPRPRPRPPNKPRP    -0.36

Consider the sequence shown here: RRIRTRPPRLPRPRPRPHPKPRP What is its recorded shrunken log2 fold change?
-0.0492

Name the recorded shrunken log2 fold change for RRIRPRPPRLPRPRPRPEMHPRP .
0.395

What value of shrunken log2 fold change has been reported for the following sequence? RRIRERPPRLPRPRPRPRWKPRP
-0.0289

Query (sequence): RRIRERPPRLPRPRPRPAAFPRP ; field requested: shrunken log2 fold change
-0.0909

What measured shrunken log2 fold change goes with RRIRYRPPRLPRPRPRPKNKPRP ?
-0.444

Suppose we examine the sequence RRIRQRPPRLPRPRPRPEHAPRP ; what shrunken log2 fold change value has been reported?
0.0519

shrunken log2 fold change for RRIRARPPRLPRPRPRPCASPRP ?
0.158

# get_value(readout='shrunken log2 fold change', item= RRIRHRPPRLPRPRPRPVCVPRP )
-0.216

Requested read-out: shrunken log2 fold change. Entry: RRIRFRPPRLPRPRPRPCYWPRP
-0.0974

If you can, please state the reported shrunken log2 fold change value of RRIRCRPPRLPRPRPRPNIQPRP .
-0.584

Value lookup for shrunken log2 fold change; key = RRIRERPPRLPRPRPRPPPRPRP
0.837

# input sequence: RRIRYRPPRLPRPRPRPQYQPRP ; wanted: its shrunken log2 fold change
-0.103

Which shrunken log2 fold change reading was recorded for the sequence RRIRFRPPRLPRPRPRPYELPRP ?
0.0447

Item under review: RRIRARPPRLPRPRPRPAELPRP . Reported shrunken log2 fold change?
0.426

I am curious: what shrunken log2 fold change value has been reported for RRIRCRPPRLPRPRPRPFKCPRP ?
-0.232

Any idea what shrunken log2 fold change was measured for RRIRHRPPRLPRPRPRPCELPRP ?
0.00567

What does the data say about its shrunken log2 fold change? Entry: RRIRERPPRLPRPRPRPTKRPRP
-0.176

What value of shrunken log2 fold change has been recorded for this entry: RRIRHRPPRLPRPRPRPQPTPRP
-0.18

----------
System: Escherichia coli TOP10;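 also: peptides expressed intracellularly from a pBAD plasmid library in pooled LB shake-flask culture, induced with 0.3% L-arabinose, DNA abundance read by NGS, three biological replicates, DESeq2 with apeglm shrinkage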
Assay: shrunken log2 fold change of peptide-encoding DNA abundance (4.5 h post-induction vs induction); higher = less antimicrobial activity (less host growth inhibition)
Conditions: time post-induction: 4.5 h; library: site-saturation at positions 5, 18, 19, 20
Outcome Measure: shrunken log2 fold change
Output spec: single numeric token, no unit.

Example entries and their recorded answers appear below.
> print(dat)
            chain.sequence   result
1  RRIRKRPPRLPRPRPRPTWQPRP     0.58
2  RRIRVRPPRLPRPRPRPKVKPRP   0.0531
3  RRIRWRPPRLPRPRPRPMFLPRP   -0.182
4  RRIRRRPPRLPRPRPRPHAPPRP    0.353
5  RRIRTRPPRLPRPRPRPMHQPRP  -0.0917
6  RRIRLRPPRLPRPRPRPEGPPRP    0.539

Sample RRIRRRPPRLPRPRPRPIQRPRP — what was its shrunken log2 fold change?
0.168

What value of shrunken log2 fold change has been reported for the following sequence? RRIRFRPPRLPRPRPRPGNLPRP
-0.13

Requested field: shrunken log2 fold change. Item: RRIRWRPPRLPRPRPRPIENPRP
0.0363

Could you share which shrunken log2 fold change value was measured for RRIRVRPPRLPRPRPRPQSFPRP ?
-0.111

Entry RRIRSRPPRLPRPRPRPQGTPRP : reported shrunken log2 fold change = ?
0.0846

// lookup shrunken log2 fold change for RRIRGRPPRLPRPRPRPNQPPRP
0.295

Item under review: RRIRVRPPRLPRPRPRPQVTPRP . Reported shrunken log2 fold change?
-0.425

Suppose we examine the sequence RRIRDRPPRLPRPRPRPKKPPRP ; what shrunken log2 fold change value has been reported?
-0.0462

Field request: shrunken log2 fold change | item: RRIRGRPPRLPRPRPRPGMWPRP
0.78

Record request: shrunken log2 fold change value, item RRIRRRPPRLPRPRPRPEVNPRP
-0.0845

What shrunken log2 fold change value was documented for this sequence, RRIRKRPPRLPRPRPRPPKCPRP ?
0.069

So what does the record say about shrunken log2 fold change for RRIRERPPRLPRPRPRPYAQPRP ?
-0.384
